- system_name: WT S protein (Severe acute respiratory syndrome coronavirus 2)
quantity: IC50

Would you mind telling me what IC50 value was observed for NCCCNCCS ?
1 to 10 mM

The measurements presented in this section are drawn from paper PMC10125213.
